- EXPERIMENT DESCRIPTION: Primary qHTS for inhibitors of nuclear receptor binding SET domain protein 2 (NSD2) in an isogenic RCH-ACV NSD2 p.E1099K mutant (9B) (AID 1645876); also: nearly all actives have a fitted effect of over 70% in size
- ASSAY CONTEXT: RCH-ACV (leukaemia line) NSD2 E1099K (9B) viability, CellTiter-Glo, 72 h; series mostly up to 44.9 µM
Records with an inconclusive call do not appear. Active and inactive are the calls of the source. Calls follow the shape of the dose curve; as a rule, active = well fitted inhibition curve with a large enough effect; inconclusive = small, poorly fitted or top-dose-only effect; inactive = flat fitted curve, though single readings scatter.
API: response.call in active, inactive

Example entries begin here.
C#C[C@]1(O)CC[C@H]2[C@@H]3CCC4=CC(=O)CC[C@@H]4[C@H]3CC[C@@]21CC	inactive
CC(C(=O)O)c1cccc(Oc2ccccc2)c1 (stereo unspecified)	inactive

Problem: Could you kindly confirm the outcome this assay logged for CCCCCN=C(N)N/N=C/c1c[nH]c2ccc(OC)cc12 ?
Result: active

Problem: Can you handle NS(=O)(=O)c1cc2c(cc1Cl)NC(CC1CCCC1)NS2(=O)=O (stereo unspecified) next?
Result: inactive

Problem: Can you handle Cc1cc(-c2ccccc2)nnc1NCCN1CCOCC1 next?
Result: inactive

Problem: Can you handle CC[C@H](c1ccc(O)cc1)[C@@H](CC)c1ccc(O)cc1 next?
Result: active
